- System: RARa:RXR (NR concentration 270 nM, RXRa partner concentration 90 nM)
- Assay Details: PBM binding z-score (relative to random genomic background probes); higher = stronger binding; sequences stand for … in GC…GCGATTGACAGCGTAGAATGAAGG
Give PBM binding z-score for every item shown.
Give the figure only, with no unit attached.

Consider "TCAGACAGGTGAAGGTAATTCAGGTACGCAGTCG" . Its measured PBM binding z-score is 1.21

Consider "TTACGAAGGTGAGCTGAGGTCGTTGATCCAACTC" . Its measured PBM binding z-score is 1.56

Consider "AAACCAAGGTGATCGTGAGGTCGTTGATACTAAC" . Its measured PBM binding z-score is 2.16

Consider "TCTAGTTGGTCAAAGGTCGCACACTCGAAATGCG" . Its measured PBM binding z-score is 5.01

Consider "TCATGTAGGTAAACAGGTGAAAGTCCGTAAGTTA" . Its measured PBM binding z-score is 0.664

Consider "AATACAGGGGCACTAGGCCAGAGTAGGTACGAAT" . Its measured PBM binding z-score is -0.2

Consider "CCTGATAGGTCAATGGTCAGCTAAAGCAGCTCGC" . Its measured PBM binding z-score is 2.95

Consider "GCGACTGGGGCATCAGCAGGTTACCCTAACTTAA" . Its measured PBM binding z-score is 0.596

Consider "CGTCAAAGTTCAACTAAGGTAAAGTAAAGCACGC" . Its measured PBM binding z-score is 4.16

Consider "CCAAACAGGTGAGAAGGTAACTCAGCCTCGATTA" . Its measured PBM binding z-score is 0.105

Consider "CCGACTGGGGCAAAGGTGACCATACTCAGTACGA" . Its measured PBM binding z-score is 1.65

Consider "GCTATTAGTTGAATGGGCAACCGAATGATTCTCG" . Its measured PBM binding z-score is -0.707
